The reported numbers originate from the Human Domainome abundance scans (Beltran et al. 2025).

We begin with a simple list: items and their reported abundance fitness.
B1: Pre-mRNA-processing factor 40 homolog B, residues 274 to 332; numbered along this chain, Q6NWY9 (parent)
chain: SNREKAKQAFKELLRDKAVPSNASWEQAMKMVVTDPRYSALPKLSEKKQAFNAYKAQRE

Variants of: B1
Assay: abundance fitness (aPCA) (normalised: wild type 0, dead -1); higher = more abundant; growth selection in yeast, the domain comes from the species named
Conditions: Homo sapiens
REPORTED ENDPOINT: abundance fitness

mutations=N52T reported_endpoint="abundance fitness" result=-0.231
mutations=L14F reported_endpoint="abundance fitness" result=-0.683
mutations=A6M reported_endpoint="abundance fitness" result=-0.539
mutations=S39H reported_endpoint="abundance fitness" result=0.098
mutations=S24P reported_endpoint="abundance fitness" result=-0.169
mutations=Q57H reported_endpoint="abundance fitness" result=-0.149
mutations=L14K reported_endpoint="abundance fitness" result=-0.408
mutations=D35K reported_endpoint="abundance fitness" result=-1.11
mutations=K47Y reported_endpoint="abundance fitness" result=-0.567
mutations=M29D reported_endpoint="abundance fitness" result=-0.097
mutations=R3T reported_endpoint="abundance fitness" result=-0.062
mutations=R3C reported_endpoint="abundance fitness" result=0.043
mutations=K48G reported_endpoint="abundance fitness" result=-0.664
mutations=L41S reported_endpoint="abundance fitness" result=-0.519
mutations=Q57F reported_endpoint="abundance fitness" result=-0.514
mutations=E12N reported_endpoint="abundance fitness" result=-0.128
mutations=K48D reported_endpoint="abundance fitness" result=-0.579
mutations=D35E reported_endpoint="abundance fitness" result=-0.372
mutations=S21L reported_endpoint="abundance fitness" result=0.109
mutations=P42H reported_endpoint="abundance fitness" result=-0.477
mutations=D16L reported_endpoint="abundance fitness" result=-0.584
mutations=A6I reported_endpoint="abundance fitness" result=-0.153
mutations=K47Q reported_endpoint="abundance fitness" result=-0.236
mutations=S1R reported_endpoint="abundance fitness" result=-0.084
mutations=R3D reported_endpoint="abundance fitness" result=0.036
mutations=P42K reported_endpoint="abundance fitness" result=-0.13
mutations=Q57A reported_endpoint="abundance fitness" result=0.046
mutations=K17M reported_endpoint="abundance fitness" result=-0.038
mutations=L14Y reported_endpoint="abundance fitness" result=-0.925
mutations=A28K reported_endpoint="abundance fitness" result=-0.524
mutations=S21V reported_endpoint="abundance fitness" result=0.089
mutations=E4Q reported_endpoint="abundance fitness" result=-0.233
mutations=V33T reported_endpoint="abundance fitness" result=-0.042
mutations=K48Q reported_endpoint="abundance fitness" result=-0.161
mutations=A56I reported_endpoint="abundance fitness" result=-0.261
mutations=E26R reported_endpoint="abundance fitness" result=-0.719
mutations=R58H reported_endpoint="abundance fitness" result=-0.013
mutations=Y38R reported_endpoint="abundance fitness" result=-0.476
mutations=A28N reported_endpoint="abundance fitness" result=-0.445
mutations=V19Y reported_endpoint="abundance fitness" result=-0.992
mutations=K55P reported_endpoint="abundance fitness" result=-0.359
mutations=Q8C reported_endpoint="abundance fitness" result=-0.386
mutations=Q49I reported_endpoint="abundance fitness" result=-0.307
mutations=W25E reported_endpoint="abundance fitness" result=-0.095
mutations=K5S reported_endpoint="abundance fitness" result=-0.055
mutations=R37W reported_endpoint="abundance fitness" result=-0.836
